B1: tRNA (parent)
chain: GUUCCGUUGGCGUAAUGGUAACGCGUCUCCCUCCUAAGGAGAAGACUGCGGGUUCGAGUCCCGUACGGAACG

# Variants of: B1
# assay: yeast fitness relative to wild type (ratio to wild type); higher = fitter; tRNA-Arg(CCU), competitive growth, 37 C, YPD
Fewer inactive variants are shown than the library holds.
Each entry below carries its reported yeast fitness.

| seq | limit.operator | yeast fitness |
| --- | --- | --- |
| GUUCCGUUGGCGGAAUGGUAACGCGUCUCCCUCCUAAGGAGAAGACUGCGGGUUCGAGUUCCGUACGGAACG | = | 0.747 |
| GUUCCGUUGGCGUAAUGGUCACGCGUCUCCCUCCUACGGAGAAGACUGCGGGUUCGAGUCCCGUAUGGAACG | ≤ | 0.5 |
| GUUCCGUUGGCGUAAUGGUUACGCGUCUCCCUCCUAAGGAGAAGACUGCGGGUUCGAGUCCCGUACGGAACG | = | 0.986 |
| GUUCCGUUGGCGUAAUAGUAACGCGUCUCCCUCCUAAGGAGAAGACUGCGGGUUCCACUCCCAUACGGAACG | ≤ | 0.5 |
| GUUCCGUUGGCGUAAUGGUAACGCGUCUCCCUCCUAUGGAGAAGACUACGGGUUCGAGUCUCGUACGGAACG | = | 0.531 |
| GUUCCGUUGGCGUAAUGGUAACGCGUCUCCCUCCCAAGGAGAAGACUGCAGGUUCGAGUCCCGUACGGAACG | = | 0.927 |
| GUGCCGUUGGCGUAAUGGUAACGCGUCUCCCUCCUAAGGAGAAGACUGCCGGUUCGAGUCCCGUACGGAACG | = | 0.699 |
| GUUCCGUUGGCGUAAUGGUAACGCGUCCCCCUCCUAAGGAGAAGACUGCGGGUUCGAGUCCCGUAAGGAACG | = | 0.689 |
| GUUCCGUUGGCGUAACGAUAACGGGUCUCCCUCCUAAGGAGAAGUCUGCGGGUUCGAGUCCCGUACGGAACG | ≤ | 0.5 |
| GUUCCGUUGGCGUAAUGCUAACGUGUCUGGCUCCUAAGGAGAAGACUGCGGGUUCGAGUCCCGUACGGAACG | = | 0.593 |
| GUUCAGUUGGCGUAAUGGUCACGCGUCUCCCUCCUAAGGAGAAGACUGCGGGUUCGUGUCCCGUACGGAACG | ≤ | 0.5 |
